Target: T1, full-length human Nectin-4 on cells (human, UniProt Q96NY8 32-510)
T1 construct: the cell is named under assay; also called CHO-Nectin-4 cells; Nectin-4-CHO
T1 sequence: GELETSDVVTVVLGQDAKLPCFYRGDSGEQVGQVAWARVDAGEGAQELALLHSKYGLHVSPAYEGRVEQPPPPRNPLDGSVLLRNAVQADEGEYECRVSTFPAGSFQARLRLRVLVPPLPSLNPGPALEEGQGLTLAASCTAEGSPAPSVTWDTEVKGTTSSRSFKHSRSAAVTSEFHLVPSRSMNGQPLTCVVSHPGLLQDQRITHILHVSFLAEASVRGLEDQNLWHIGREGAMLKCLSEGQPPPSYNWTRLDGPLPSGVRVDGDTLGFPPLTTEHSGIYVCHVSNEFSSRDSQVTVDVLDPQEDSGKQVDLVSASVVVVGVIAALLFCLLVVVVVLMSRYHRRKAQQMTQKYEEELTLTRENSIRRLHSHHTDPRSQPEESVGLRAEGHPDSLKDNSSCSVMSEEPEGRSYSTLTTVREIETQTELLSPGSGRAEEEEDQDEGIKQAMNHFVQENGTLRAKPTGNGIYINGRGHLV
Assay: flow cytometry competition on CHO-Nectin-4 cells; competitor biotinylated human Nectin-1-His
// reported pEC50 for each item listed
The read-out pEC50 is expressed as -log10 of concentration in moles per litre.

N4_mAb 2 (antibody, human IgG1, V domains shown, Tested as chimera (human IgG1/kappa constants); not shown: human IgG1 constant region (Uniprot P01857); human Kappa light chain constant region (UniProt P01834)) VH: QVQLKQSGPNLVQPSQSLSITCTVSGFSLTTYGAHWVRQSPGKGLEWLGVIWRGGSTDYNAAFMSRLSITKDNSKSQVFFKMNSLQADDTAIYYCAKIGYDGYAMDNWGQGTSVTVSS VL: DFQVTQSPASLSASVGETVTITCRTSENIHNYLAWYQQKQGKSPQLLVYNAKTLADGVPSRFSGSGSGTQYSLKINSLQPEDFGTYYCQHFWSSPWTFGGGTKLEIK    9.19

In plain terms, N4_mAb 5 (antibody, human IgG1, V domains shown, Tested as chimera (human IgG1/kappa constants); not shown: human IgG1 constant region (Uniprot P01857); human Kappa light chain constant region (UniProt P01834)) VH: EVQLQQSGPDLVKPGASVKISCKASGYSFTGHYMHWVKQSHGKSLEWIGRVNPNNGGSSYNQKFKDKAILTVDKSSTTAYMELRSLTSEDSAVYYCARDPLGGSYGFAYWGQGTLVTVSA VL: DIVLTQSPASLAVSLGQRATISCRASQSVTTSSYSYMHWYQQKPGQPPKLLIKYASNLESGVPARFSGSGSGTDFTLNIHPVEEEDTATYYCQHSWEIPYTFGGGTKLEMK has a documented pEC50 of 9.30
